System: Candida krusei E28
Test: Antifungal microdilution broth method, C. krusei
Assay type: cell-based
Details: Pichia kudriavzevii, 24 h, read-out: MIC CK 24 h
Threshold 100 µM: MIC strictly smaller gives MET, otherwise NOT MET.

Some solved cases for reference:
INSERT INTO assay_data (molecule, target_under_test, class_name) VALUES
  ('O=C(O)c1ccc(N=Cc2cc(O)ccc2O)cc1', 'Candida krusei E28', 'NOT MET'),
  ('O=C(O)c1ccc(NCc2ccccc2O)cc1 [1u, 4-[(2-Hydroxybenzyl)amino]benzoic acid]', 'Candida krusei E28', 'NOT MET'),
  ('O=C(O)c1ccc(N=Cc2ccccc2O)cc1', 'Candida krusei E28', 'NOT MET'),
  ('O=C(O)c1ccc(N=Cc2cc(Cl)cc(Cl)c2O)cc1', 'Candida krusei E28', 'NOT MET'),
  ('O=C(O)c1ccc(N=Cc2ccc(O)cc2)cc1', 'Candida krusei E28', 'NOT MET');

Request: State whether 100 µM exceeds MIC recorded for COc1ccccc1C=Nc1ccc(C(=O)O)cc1 .
Result: NOT MET

Request: State whether 100 µM exceeds MIC recorded for O=C(O)c1ccc(N=Cc2cc(Cl)cc(I)c2O)cc1 .
Result: MET

Request: State whether 100 µM exceeds MIC recorded for O=C(O)c1ccc(N=Cc2ccc(Cl)cc2O)cc1 .
Result: NOT MET

Request: State whether 100 µM exceeds MIC recorded for COc1ccc(O)c(C=Nc2ccc(C(=O)O)cc2)c1 .
Result: NOT MET

Request: State whether 100 µM exceeds MIC recorded for O=C(O)c1ccc(N=Cc2cccc(Cl)c2O)cc1 .
Result: NOT MET

* * *

System: Trichophyton interdigitale 445
Test: Antifungal microdilution broth method, T. interdigitale
Format: cell-based
Details: 120 h, read-out: MIC TI 120 h
Property: log10 MIC (log10 of the value in µM)
All values: log10 MIC [µM].

Worked cases, answers included:
INSERT INTO measurements (molecule, endpoint_result) VALUES
  ('O=C(O)c1ccc(N=Cc2cc(Cl)cc(Br)c2O)cc1 [1o]', 1.80),
  ('O=C(O)c1ccc(N=Cc2cc(Cl)cc(I)c2O)cc1 [1p]', 0.89);

# map each molecule to its log10 MIC
1. O=C(O)c1ccc(N=Cc2c(O)cccc2Cl)cc1 [1k]
2. O=C(O)c1ccc(N=Cc2cc(Br)ccc2O)cc1 [1d]
3. O=C(O)c1ccc(N=Cc2ccc([N+](=O)[O-])o2)cc1 [1r]
4. O=C(O)c1ccc(N=Cc2cc([N+](=O)[O-])ccc2O)cc1 [1f]
5. O=C(O)c1ccc(N=Cc2cc(Cl)cc(Cl)c2O)cc1 [1n]

Result:
1. 2.10
2. 1.80
3. 2.40
4. 2.70
5. 2.40

* * *

System: M. kansasii 6509/96 (clinical isolate)
Experiment: Antimycobacterial micromethod in Šula's medium, M. kansasii 6509/96
Type: cell-based
Details: Mycobacterium kansasii, 504 h; 21 days incubation at 37 °C; read-out: MIC M. kansasii 6509/96 21 d
Answer each item with its documented MIC.
One number for each entry, in µM.

Worked cases, answers included:
INSERT INTO results (molecule, property, endpoint_result) VALUES
  ('CC(C)(C)c1ccc(O)c(C=Nc2ccc(C(=O)O)cc2)c1 [1j]', 'MIC', 500),
  ('O=C(O)c1ccc(N=Cc2ccc(O)cc2)cc1 [1t]', 'MIC', 1000),
  ('O=C(O)c1ccc(N=Cc2cc([N+](=O)[O-])ccc2O)cc1 [1f]', 'MIC', 500),
  ('O=C(O)c1ccc(N=Cc2cc(I)cc(I)c2O)cc1 [1q]', 'MIC', 250),
  ('COc1ccccc1C=Nc1ccc(C(=O)O)cc1 [1s]', 'MIC', 1000),
  ('O=C(O)c1ccc(N=Cc2cc(O)ccc2O)cc1 [1i]', 'MIC', 1000);

# map each molecule to its MIC
1. O=C(O)c1ccc(N=Cc2cc(Cl)cc(I)c2O)cc1 [1p]
2. NNC(=O)c1ccncc1 [INH, isoniazid, reference compound]
3. O=C(O)c1ccc(N=Cc2cc(Br)ccc2O)cc1 [1d]
4. O=C(O)c1ccc(N=Cc2ccccc2O)cc1 [1a]
5. O=C(O)c1ccc(N=Cc2cc(I)ccc2O)cc1 [1e]
6. Nc1ccc(C(=O)O)cc1 [PABA 1, 4-aminobenzoic acid]
7. O=C(O)c1ccc(N=Cc2cc(Cl)cc(Cl)c2O)cc1 [1n]
8. Cc1ccc(O)c(C=Nc2ccc(C(=O)O)cc2)c1 [1g]

Result:
500
8
500
1000
500
1000
500
1000

# map each molecule to its MIC
1. O=C(O)c1ccc(NCc2ccccc2O)cc1 [1u, 4-[(2-Hydroxybenzyl)amino]benzoic acid]
2. O=C(O)c1ccc(N=Cc2c(O)cccc2Cl)cc1 [1k]
3. COc1ccc(O)c(C=Nc2ccc(C(=O)O)cc2)c1 [1h]
4. O=C(O)c1ccc(N=Cc2ccc([N+](=O)[O-])o2)cc1 [1r]
5. O=C(O)c1ccc(N=Cc2cc(Cl)ccc2O)cc1 [1c]

Result:
1000
500
500
250
1000
